- experimental.target: Lysine-specific demethylase 5B (Homo sapiens) (UniProt Q9UGL1)
- Sequence (Q9UGL1 whole entry, looked up): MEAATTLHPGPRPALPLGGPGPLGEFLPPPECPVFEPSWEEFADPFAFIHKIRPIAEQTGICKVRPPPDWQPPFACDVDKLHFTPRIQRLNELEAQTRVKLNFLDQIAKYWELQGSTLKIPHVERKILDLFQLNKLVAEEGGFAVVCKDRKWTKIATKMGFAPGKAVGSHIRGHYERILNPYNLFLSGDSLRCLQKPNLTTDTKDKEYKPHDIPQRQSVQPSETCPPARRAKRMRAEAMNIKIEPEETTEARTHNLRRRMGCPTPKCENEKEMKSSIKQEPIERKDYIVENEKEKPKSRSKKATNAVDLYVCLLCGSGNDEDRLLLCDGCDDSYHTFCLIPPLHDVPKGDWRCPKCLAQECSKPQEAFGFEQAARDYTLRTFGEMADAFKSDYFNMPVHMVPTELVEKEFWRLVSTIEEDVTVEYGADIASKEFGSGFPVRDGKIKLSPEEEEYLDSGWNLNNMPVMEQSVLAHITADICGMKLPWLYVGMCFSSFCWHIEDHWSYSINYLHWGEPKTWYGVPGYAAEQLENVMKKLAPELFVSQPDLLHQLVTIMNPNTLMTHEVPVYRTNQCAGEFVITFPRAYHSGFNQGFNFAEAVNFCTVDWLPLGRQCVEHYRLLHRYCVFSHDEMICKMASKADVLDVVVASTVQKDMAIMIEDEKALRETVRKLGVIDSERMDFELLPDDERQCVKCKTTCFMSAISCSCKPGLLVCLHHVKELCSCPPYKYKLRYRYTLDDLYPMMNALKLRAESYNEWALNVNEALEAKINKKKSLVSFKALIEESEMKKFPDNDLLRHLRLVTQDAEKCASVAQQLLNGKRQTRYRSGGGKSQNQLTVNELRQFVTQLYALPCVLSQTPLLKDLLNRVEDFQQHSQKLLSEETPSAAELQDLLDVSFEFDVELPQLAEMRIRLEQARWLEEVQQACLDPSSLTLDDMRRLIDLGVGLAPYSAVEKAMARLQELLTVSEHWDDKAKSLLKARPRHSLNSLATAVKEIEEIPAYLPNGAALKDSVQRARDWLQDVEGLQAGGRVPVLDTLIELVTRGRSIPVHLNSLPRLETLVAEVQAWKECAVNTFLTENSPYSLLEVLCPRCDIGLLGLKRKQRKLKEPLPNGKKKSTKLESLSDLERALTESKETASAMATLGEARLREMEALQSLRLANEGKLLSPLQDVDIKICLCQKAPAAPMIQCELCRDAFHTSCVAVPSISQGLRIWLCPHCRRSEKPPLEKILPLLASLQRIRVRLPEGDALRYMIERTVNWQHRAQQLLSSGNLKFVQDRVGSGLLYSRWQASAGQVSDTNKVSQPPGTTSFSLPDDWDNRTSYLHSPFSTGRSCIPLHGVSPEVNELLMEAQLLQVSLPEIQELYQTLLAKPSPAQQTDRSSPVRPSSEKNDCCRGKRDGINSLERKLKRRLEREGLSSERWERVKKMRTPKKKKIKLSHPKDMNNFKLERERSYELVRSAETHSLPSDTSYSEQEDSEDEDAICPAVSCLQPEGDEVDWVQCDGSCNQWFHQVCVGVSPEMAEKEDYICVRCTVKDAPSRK
- assay.notes: Primary screen for KDM5B Histone Demethylases FDH-coupled qHTS; note: nearly all actives have a fitted effect of over 70% in size
- experimental.parameters: FDH-coupled NADH fluorescence; series mostly up to 57.7 µM
- Description: Assay Submitter (PI): Qin Yan, Ph.D. (Yale University) and Xiaodong Cheng, Ph.D. (MD Anderson) This project was funded as part of the NCI NEXT Program and Chemical Biology Consortium (CBC) The histone demethylases, KDM5A and KDM5B catalyze the demethylation of lysine 4 on histone H3 (H3K4me3/2). They are overexpressed in a variety of cancers and have been implicated in cancer cell growth, metastasis, drug resistance, and tumor growth. […]
Out of some 220,000 compounds screened, about 5,700 (2.6%) were called active. Another 18% or so got no clear call; they are omitted. Calls come from the whole dose curve; as a rule, active = well fitted inhibition curve with a large enough effect; inconclusive = small, poorly fitted or top-dose-only effect; inactive = no such curve, though single readings can be large or run the other way. The entries come from a sample that favours actives as a whole.
Returns: one label drawn from active, inactive

Check out these entries, answers already filled in.
COc1ccc(N2CCN(C3CCCN(CC(=O)N(C)C(C)C)C3)CC2)cc1 (stereo not drawn) = inactive
COc1ccc(-n2nc(-c3ccccc3)n(CC(=O)N(C)CC(C)C)c2=O)cc1 = active

Attention now turns to another entry.
stdin: Which result was noted for this molecule in the test: `COC(=O)CNC(=O)CNC(=O)c1nn(-c2ccc(OC)cc2)c(=O)c2ccccc12`
stdout: inactive

---

- experimental.target: Lysine-specific demethylase 5B (Homo sapiens)
- assay.notes: Primary screen for KDM5B Histone Demethylases FDH-coupled qHTS; note: nearly all actives have a fitted effect of over 70% in size
- experimental.parameters: FDH-coupled NADH fluorescence; series mostly up to 57.7 µM
Screen size: about 220,000 compounds; about 5,700 (2.6%) were called active. Roughly 18% stayed inconclusive and do not appear here. Calls come from the whole dose curve; as a rule, active = well fitted inhibition curve with a large enough effect; inconclusive = small, poorly fitted or top-dose-only effect; inactive = no such curve, though single readings can be large or run the other way. The list comes from a sample in which actives are over-represented; it also holds close analogues and randomly drawn compounds.
The reply should name one outcome from label 1 = active, label 0 = inactive

# example entries with known answers
CCCCS(=O)CC(O)CCl (stereo not drawn) = label 0
Cc1oc2ccn(Cc3cccc(F)c3)c(=O)c2c1C(=O)NCc1cccnc1 = label 0
Cc1cccc(CN2CCc3nc(C(=O)Nc4ccc(Cl)cc4)oc3CC2)c1 = label 1
O=C(c1nc2c(o1)CCN(Cc1ccccc1F)CC2)N1CCOCC1 = label 0
COc1ccc(NC(=O)c2cc3c(N(C)Cc4ccccc4)nc(C)cn3n2)cc1F = label 1

Turning now to a further record.
stdin: Just curious, what result did `O=C(/C=C/c1ccccc1)Nc1cccc2c1CCCC2` get here?
stdout: label 0

---

- experimental.target: Lysine-specific demethylase 5B (Homo sapiens) (UniProt Q9UGL1)
- assay.notes: Primary screen for KDM5B Histone Demethylases FDH-coupled qHTS; note: nearly all actives have a fitted effect of over 70% in size
- experimental.parameters: FDH-coupled NADH fluorescence; series mostly up to 57.7 µM
Screen size: about 220,000 compounds; about 5,700 (2.6%) were called active. Another 18% or so got no clear call; they are omitted. Shown is part of a subset that was picked to be rich in actives.
readout.type: outcome

COc1cccc(CC(=O)NC2CCN(c3cn[nH]c(=O)c3)CC2)c1 = inactive
O=C(NCc1ccnc2[nH]ccc12)c1ccccn1 = inactive
Cc1ccc(OCc2nc3ccc(F)cc3[nH]2)cc1 = inactive

---

- experimental.target: Lysine-specific demethylase 5B (Homo sapiens)
- assay.notes: Primary screen for KDM5B Histone Demethylases FDH-coupled qHTS; note: nearly all actives have a fitted effect of over 70% in size
- experimental.parameters: FDH-coupled NADH fluorescence (FDH is formaldehyde dehydrogenase); series mostly up to 57.7 µM
Out of some 220,000 compounds screened, about 5,700 (2.6%) were called active. Not shown: some 18% with an inconclusive outcome. Calls come from the whole dose curve; as a rule, active = well fitted inhibition curve with a large enough effect; inconclusive = small, poorly fitted or top-dose-only effect; inactive = no such curve, though single readings can be large or run the other way. The list comes from a sample in which actives are over-represented; it also holds close analogues and randomly drawn compounds.
// classify into true (1) (active), false (0) (inactive)

Take a look at these entries with their results.
CCN1CCC(N(Cc2cccs2)C(=O)Nc2cc(Cl)ccc2C(=O)OC)CC1 = false (0)
O=C(NC1CCCN(c2cc(-c3ccccc3)[nH]n2)C1)c1cccc(Cl)c1 (stereo not drawn) = false (0)
O=C(NC1CCN(c2cc(-c3ccc(F)cc3)[nH]n2)C1)c1ccc2c(c1)OCO2 (stereo not drawn) = false (0)
Cc1nn(C)cc1CNC(=O)c1cc2nc(-c3ccc(Cl)s3)cc(C(F)(F)F)n2n1 = false (0)
CCCCN(CCCC)c1nc2ccccc2nc1C(C#N)C(=O)OC(C)C (stereo not drawn) = false (0)

stdin: Lab log entry: `Cc1nn(-c2ccccc2)c(C)c1[C@@H]1C=C[C@@H](NC(=O)c2ccc3c(c2)OCO3)C1` — outcome as called in the assay?
stdout: false (0)

stdin: In this assay, the call recorded for `O=C(NC1CCN(c2cc(-c3ccccc3)[nH]n2)CC1)c1cccs1` was what?
stdout: false (0)

stdin: Hi, do you know how `O=C(NCCc1ccc(Cl)cc1)c1ccc2nc(CCc3ccccc3)oc2c1` came out in this test?
stdout: false (0)

stdin: Returns: the outcome recorded for `O=C(NCc1ccccn1)c1ccc2nccn2c1` in this assay.
stdout: true (1)

stdin: What outcome does the record of this test show for CCn1c(SCC(=O)NC2=NCCS2)nnc1C(C)NC(=O)c1ccccc1F (stereo not drawn) ?
stdout: false (0)

stdin: # fetch the recorded call for `CCOC(=O)c1ccc(NC(=O)CCn2ccn3nc4c(c3c2=O)CCCC4)cc1` here
stdout: false (0)

stdin: Please share the test call associated with `O=C(Nc1ccc(C(=O)N2CCOCC2)cc1)Nc1cccc(C(F)(F)F)c1` .
stdout: false (0)

stdin: What is the recorded call for this compound in the test? `O=C(NC1CCN(c2cc(-c3ccc(Cl)cc3)[nH]n2)CC1)c1ccccc1F`
stdout: false (0)
